Target: hOT-R (Homo sapiens)
Sequence (P30559 1-389): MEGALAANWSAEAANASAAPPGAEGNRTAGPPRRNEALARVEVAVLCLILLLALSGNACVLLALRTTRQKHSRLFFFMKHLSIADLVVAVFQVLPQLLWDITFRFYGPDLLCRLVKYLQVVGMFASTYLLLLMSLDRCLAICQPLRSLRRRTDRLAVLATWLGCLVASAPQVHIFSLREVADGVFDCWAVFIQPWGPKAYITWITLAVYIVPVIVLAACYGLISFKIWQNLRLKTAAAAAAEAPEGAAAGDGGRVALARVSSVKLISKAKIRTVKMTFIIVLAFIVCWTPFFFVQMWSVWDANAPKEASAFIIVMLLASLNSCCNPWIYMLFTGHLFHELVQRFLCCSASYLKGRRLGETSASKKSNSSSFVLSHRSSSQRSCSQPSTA
Experiment: In vitro binding assay (SPA), competition with [125I]-OVTA on membranes from HEK293EBNA cells expressing the hOT receptor
Design: expressed in transfected cells; host or cells: HEK293EBNA
Details: 0.2 nM [125I]-OVTA, read-out: Binding affinity human OT-R IC50
# strict inequality: IC50 < 300 nM yields 1, everything else yields 0

{"molecule": "CON=C1C[C@@H](C(=O)NC[C@@H](O)c2ccccc2)N(C(=O)c2ccc(-c3ccccc3Cl)cc2)C1", "experimental_system": "hOT-R (Homo sapiens)", "qualitative_label": 1}
{"molecule": "CO/N=C1/C[C@@H](c2nc3ccccc3[nH]2)N(C(=O)c2ccc(-c3ccccc3)cc2)C1", "experimental_system": "hOT-R (Homo sapiens)", "qualitative_label": 0}
{"molecule": "CO/N=C1\\C[C@@H](C(=O)NC[C@@H](O)c2ccccc2)N(C(=O)c2ccc(-c3ccccc3C)cc2)C1 [drawing 17]", "experimental_system": "hOT-R (Homo sapiens)", "qualitative_label": 1}
{"molecule": "O=C(NCC(O)c1ccccc1)[C@@H]1C/C(=C/Cl)CN1C(=O)c1ccc(-c2ccccc2)cc1 (mixture of isomers)", "experimental_system": "hOT-R (Homo sapiens)", "qualitative_label": 0}

Problem: For the molecule CO/N=C1/C[C@@H](C(=O)NC[C@@H](O)c2ccccc2)N(C(=O)c2ccc(-c3ccccc3C)cc2)C1 [drawing 18] , is IC50 under 300 nM?
1

Problem: For the molecule CON=C1C[C@@H](C(=O)NCCC(N)=O)N(C(=O)c2ccc(-c3ccccc3C)cc2C)C1 , is IC50 under 300 nM?
0

====

Target: hOT-R (Homo sapiens)
Sequence (P30559 1-389): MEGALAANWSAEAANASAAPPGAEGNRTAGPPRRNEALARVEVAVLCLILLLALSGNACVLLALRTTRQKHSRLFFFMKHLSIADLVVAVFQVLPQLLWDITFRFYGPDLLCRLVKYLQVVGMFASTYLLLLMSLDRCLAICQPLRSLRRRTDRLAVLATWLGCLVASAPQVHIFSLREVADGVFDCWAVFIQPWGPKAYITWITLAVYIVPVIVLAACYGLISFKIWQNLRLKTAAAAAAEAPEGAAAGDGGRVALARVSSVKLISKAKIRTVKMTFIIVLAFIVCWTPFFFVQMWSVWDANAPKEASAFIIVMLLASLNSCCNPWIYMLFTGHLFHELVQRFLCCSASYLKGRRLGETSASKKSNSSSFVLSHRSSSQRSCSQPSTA
Assay: Functional assay No. 1: inhibition of oxytocin-induced Ca2+-mobilization by FLIPR
Format: cell-based
Parameters: expressed in transfected cells; host or cells: HEK cells (CHO cells also mentioned)
Settings: oxytocin-induced intracellular Ca2+ mobilization, read-out: Inhibition of Ca^2+ mobilization, hOT-R IC50
Description: c) Functional Assay No. 1: Inhibition of Ca^2+-Mobilization by FLIPR Preparing the plates: FLIPR-plates were pre-coated with PLL 10 μg/ml+0.1% gelatine for 30 min up to 2 days at 37° C. (for HEK-cells). The cells were plated out into 96-well plates (60000 cells/well). Labelling with fluo-4: 50 μg fluo-4 were dissolved in 20 μl pluronic acid (20% in DMSO). […] The activities of the pyrrolidine derivatives according to formula I were assessed using the above described in vitro biological assay. […]
Overview of recorded IC50 for various compounds
Entry rule: numbers only, all in nM.

Consider the worked cases shown below.
{"compound": "CON=C1C[C@@H](C(=O)NCC[C@@H](O)c2ccccc2)N(C(=O)c2ccc(-c3ccccc3C)cc2)C1", "experimental_system": "hOT-R (Homo sapiens)", "unit_name": "nM", "recorded_number": 320}
{"compound": "CO/N=C1/C[C@@H](C(=O)NC[C@@H](O)c2ccccc2)N(C(=O)c2ccc(-c3ccccc3C)cc2)C1 [drawing 18]", "experimental_system": "hOT-R (Homo sapiens)", "unit_name": "nM", "recorded_number": 30}
{"compound": "CO/N=C1/C[C@@H](C(=O)NCCO)N(C(=O)c2ccc(-c3ccccc3)cc2)C1", "experimental_system": "hOT-R (Homo sapiens)", "unit_name": "nM", "recorded_number": 650}
{"compound": "CO/N=C1\\C[C@@H](C(=O)NC[C@@H](O)c2ccccc2)N(C(=O)c2ccc(-c3ccccc3C)cc2)C1 [drawing 17]", "experimental_system": "hOT-R (Homo sapiens)", "unit_name": "nM", "recorded_number": 70}

# return recorded IC50 for entry CO/N=C1/C[C@@H](c2nc3ccccc3[nH]2)N(C(=O)c2ccc(-c3ccccc3)cc2)C1
400
